I'd be grateful if you could share measured pIC50 for these entries.
Biological target: Acetylcholinesterase (Homo sapiens, UniProt P22303)
Sequence (P22303 whole entry): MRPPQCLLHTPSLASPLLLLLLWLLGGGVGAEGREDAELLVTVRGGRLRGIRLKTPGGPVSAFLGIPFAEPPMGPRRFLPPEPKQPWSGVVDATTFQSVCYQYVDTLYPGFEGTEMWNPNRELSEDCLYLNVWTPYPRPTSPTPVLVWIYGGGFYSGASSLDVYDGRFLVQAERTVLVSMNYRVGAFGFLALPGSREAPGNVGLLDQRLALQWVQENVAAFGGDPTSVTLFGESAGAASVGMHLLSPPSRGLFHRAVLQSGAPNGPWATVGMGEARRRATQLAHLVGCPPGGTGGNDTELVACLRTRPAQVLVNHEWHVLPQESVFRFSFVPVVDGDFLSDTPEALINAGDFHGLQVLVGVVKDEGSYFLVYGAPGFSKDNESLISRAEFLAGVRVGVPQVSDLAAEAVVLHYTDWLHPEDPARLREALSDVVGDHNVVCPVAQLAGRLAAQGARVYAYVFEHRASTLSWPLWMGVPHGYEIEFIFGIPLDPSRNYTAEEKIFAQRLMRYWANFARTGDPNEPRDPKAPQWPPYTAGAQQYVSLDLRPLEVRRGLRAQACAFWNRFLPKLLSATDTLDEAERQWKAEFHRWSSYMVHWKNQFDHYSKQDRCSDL
Assay: Inhibition of human serum AChE by Ellman's assay
One number for each entry, as −log10 of the molar value.

Would you please look over these solved cases?
| structure.smiles.string | val |
| --- | --- |
| C[C@@H]1CCC[C@H](C)N1S(=O)(=O)c1ccc(Cl)cc1 | 6.50 |
| Cc1ccc(S(=O)(=O)N2[C@H](C)CCC[C@@H]2C)cc1 | 6.43 |
| C[C@@H]1CCC[C@H](C)N1S(=O)(=O)c1cccc([N+](=O)[O-])c1 | 6.72 |

Next compound, please.
The reported pIC50 of the compound C[C@@H]1CCC[C@H](C)N1S(C)(=O)=O was 7.12

---

System: Rattus norvegicus
Assay: Antiamnesic activity against scopolamine-induced memory loss in rat assessed as basal latency to reach shock free zone 1 at 0.1 mg/kg, ip
Assay type: functional
Conditions: route intraperitoneal
I'd be grateful if you could share measured Activity for these entries.
One number for each entry, in s.

Return reported Activity values for all items listed beneath this line.
1. Cc1ccc(S(=O)(=O)N2[C@H](C)CCC[C@@H]2C)cc1
2. C[C@@H]1CCC[C@H](C)N1S(=O)(=O)c1cc(Cl)ccc1Cl

[27, 16]

Return reported Activity values for all items listed beneath this line.
1. C[C@@H]1CCC[C@H](C)N1S(C)(=O)=O
2. C[C@@H]1CCC[C@H](C)N1S(=O)(=O)c1ccc(C(C)(C)C)cc1
3. C[C@@H]1CCC[C@H](C)N1S(=O)(=O)c1ccccc1[N+](=O)[O-]
4. C[C@@H]1CCC[C@H](C)N1S(=O)(=O)c1cccc([N+](=O)[O-])c1

1: 20; 2: 28; 3: 17; 4: 22

Return reported Activity values for all items listed beneath this line.
1. C[C@@H]1CCC[C@H](C)N1S(=O)(=O)c1ccccc1
2. C[C@@H]1CCC[C@H](C)N1S(=O)(=O)c1ccc(Cl)cc1
3. C[C@@H]1CCC[C@H](C)N1S(=O)(=O)c1ccc([N+](=O)[O-])cc1

1: 26; 2: 25; 3: 34

---

Target: Acetylcholinesterase (Electrophorus electricus, UniProt O42275)
Sequence (O42275 whole entry): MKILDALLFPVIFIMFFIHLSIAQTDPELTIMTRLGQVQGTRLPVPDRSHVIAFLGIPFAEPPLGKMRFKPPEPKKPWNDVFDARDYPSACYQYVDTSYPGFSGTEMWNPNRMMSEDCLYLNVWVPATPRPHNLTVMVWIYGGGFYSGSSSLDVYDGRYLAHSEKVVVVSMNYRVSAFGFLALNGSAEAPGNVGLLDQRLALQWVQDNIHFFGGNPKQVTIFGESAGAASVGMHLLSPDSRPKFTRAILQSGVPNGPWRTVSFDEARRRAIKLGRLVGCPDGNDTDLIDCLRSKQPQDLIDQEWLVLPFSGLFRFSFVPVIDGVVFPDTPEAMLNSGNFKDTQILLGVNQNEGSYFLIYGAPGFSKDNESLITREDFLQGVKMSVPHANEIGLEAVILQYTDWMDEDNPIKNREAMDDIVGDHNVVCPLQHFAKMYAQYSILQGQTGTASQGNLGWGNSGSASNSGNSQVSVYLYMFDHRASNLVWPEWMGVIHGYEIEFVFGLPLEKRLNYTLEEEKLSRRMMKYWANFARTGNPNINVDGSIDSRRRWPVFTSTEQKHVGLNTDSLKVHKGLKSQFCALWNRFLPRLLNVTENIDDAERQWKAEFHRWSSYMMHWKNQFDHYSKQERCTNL
Binning of IC50 into classes: b0 = under 200 nM, b1 = from 200 nM up to 400 nM, b2 = 400 nM and over

Known results for molecules:
| molecule | classification |
| --- | --- |
| C[C@@H]1CCC[C@H](C)N1S(C)(=O)=O | b0 |
| Cc1ccc(S(=O)(=O)N2[C@H](C)CCC[C@@H]2C)cc1 | b1 |
| C[C@@H]1CCC[C@H](C)N1S(=O)(=O)c1ccccc1[N+](=O)[O-] | b0 |
| CN(C)C(=O)Oc1cccc([N+](C)(C)C)c1 [NEOSTIGMINE BROMIDE] | b0 |
| C[C@@H]1CCC[C@H](C)N1S(=O)(=O)c1ccc([N+](=O)[O-])cc1 | b2 |
| C[C@@H]1CCC[C@H](C)N1S(=O)(=O)c1cc(Cl)ccc1Cl | b0 |
| C[C@@H]1CCC[C@H](C)N1S(=O)(=O)c1ccc(Cl)cc1 | b1 |

Here is the next item to consider.
Exercise: read the entry C[C@@H]1CCC[C@H](C)N1S(=O)(=O)c1ccc(C(C)(C)C)cc1 and state which class it falls under. b2

---

Biological target: Acetylcholinesterase (Homo sapiens, UniProt P22303)
Assay: Inhibition of human serum AChE by Ellman's assay
experimental.endpoint: pIC50
Numbers only, as −log10 of the molar value.

| structure.smiles.string | pIC50 |
| --- | --- |
| C[C@@H]1CCC[C@H](C)N1S(=O)(=O)c1ccccc1[N+](=O)[O-] | 6.73 |

Return reported pIC50 values for all items listed beneath this line.
1. C[C@@H]1CCC[C@H](C)N1S(=O)(=O)c1ccccc1
2. C[C@@H]1CCC[C@H](C)N1S(=O)(=O)c1cc(Cl)ccc1Cl
3. C[C@@H]1CCC[C@H](C)N1S(=O)(=O)c1ccc(C(C)(C)C)cc1

1: 6.41; 2: 7.05; 3: 6.34

The reported pIC50 of the compound C[C@@H]1CCC[C@H](C)N1S(=O)(=O)c1ccc([N+](=O)[O-])cc1 was 5.94

---

// Acetylcholinesterase (Rattus norvegicus, UniProt P37136) IC50 records
Be sure to follow the number with its unit.

Would you please look over these solved cases?
| compound | IC50 |
| --- | --- |
| C[C@@H]1CCC[C@H](C)N1S(=O)(=O)c1cc(Cl)ccc1Cl | 75 nM |
| C[C@@H]1CCC[C@H](C)N1S(=O)(=O)c1ccc(Cl)cc1 | 325 nM |
| C[C@@H]1CCC[C@H](C)N1S(=O)(=O)c1ccc([N+](=O)[O-])cc1 | 1200 nM |
| C[C@@H]1CCC[C@H](C)N1S(=O)(=O)c1ccccc1 | 362 nM |
| C[C@@H]1CCC[C@H](C)N1S(=O)(=O)c1ccc(C(C)(C)C)cc1 | 463 nM |
| C[C@@H]1CCC[C@H](C)N1S(=O)(=O)c1ccccc1[N+](=O)[O-] | 195 nM |
| Cc1ccc(S(=O)(=O)N2[C@H](C)CCC[C@@H]2C)cc1 | 362 nM |
| C[C@@H]1CCC[C@H](C)N1S(=O)(=O)c1cccc([N+](=O)[O-])c1 | 186 nM |
| CN(C)C(=O)Oc1cccc([N+](C)(C)C)c1 [NEOSTIGMINE BROMIDE] | 40 nM |

The reported IC50 of the compound C[C@@H]1CCC[C@H](C)N1S(C)(=O)=O was 85 nM
